Target: PIKFYVE (Homo sapiens)
Sequence (Q9Y2I7 whole entry): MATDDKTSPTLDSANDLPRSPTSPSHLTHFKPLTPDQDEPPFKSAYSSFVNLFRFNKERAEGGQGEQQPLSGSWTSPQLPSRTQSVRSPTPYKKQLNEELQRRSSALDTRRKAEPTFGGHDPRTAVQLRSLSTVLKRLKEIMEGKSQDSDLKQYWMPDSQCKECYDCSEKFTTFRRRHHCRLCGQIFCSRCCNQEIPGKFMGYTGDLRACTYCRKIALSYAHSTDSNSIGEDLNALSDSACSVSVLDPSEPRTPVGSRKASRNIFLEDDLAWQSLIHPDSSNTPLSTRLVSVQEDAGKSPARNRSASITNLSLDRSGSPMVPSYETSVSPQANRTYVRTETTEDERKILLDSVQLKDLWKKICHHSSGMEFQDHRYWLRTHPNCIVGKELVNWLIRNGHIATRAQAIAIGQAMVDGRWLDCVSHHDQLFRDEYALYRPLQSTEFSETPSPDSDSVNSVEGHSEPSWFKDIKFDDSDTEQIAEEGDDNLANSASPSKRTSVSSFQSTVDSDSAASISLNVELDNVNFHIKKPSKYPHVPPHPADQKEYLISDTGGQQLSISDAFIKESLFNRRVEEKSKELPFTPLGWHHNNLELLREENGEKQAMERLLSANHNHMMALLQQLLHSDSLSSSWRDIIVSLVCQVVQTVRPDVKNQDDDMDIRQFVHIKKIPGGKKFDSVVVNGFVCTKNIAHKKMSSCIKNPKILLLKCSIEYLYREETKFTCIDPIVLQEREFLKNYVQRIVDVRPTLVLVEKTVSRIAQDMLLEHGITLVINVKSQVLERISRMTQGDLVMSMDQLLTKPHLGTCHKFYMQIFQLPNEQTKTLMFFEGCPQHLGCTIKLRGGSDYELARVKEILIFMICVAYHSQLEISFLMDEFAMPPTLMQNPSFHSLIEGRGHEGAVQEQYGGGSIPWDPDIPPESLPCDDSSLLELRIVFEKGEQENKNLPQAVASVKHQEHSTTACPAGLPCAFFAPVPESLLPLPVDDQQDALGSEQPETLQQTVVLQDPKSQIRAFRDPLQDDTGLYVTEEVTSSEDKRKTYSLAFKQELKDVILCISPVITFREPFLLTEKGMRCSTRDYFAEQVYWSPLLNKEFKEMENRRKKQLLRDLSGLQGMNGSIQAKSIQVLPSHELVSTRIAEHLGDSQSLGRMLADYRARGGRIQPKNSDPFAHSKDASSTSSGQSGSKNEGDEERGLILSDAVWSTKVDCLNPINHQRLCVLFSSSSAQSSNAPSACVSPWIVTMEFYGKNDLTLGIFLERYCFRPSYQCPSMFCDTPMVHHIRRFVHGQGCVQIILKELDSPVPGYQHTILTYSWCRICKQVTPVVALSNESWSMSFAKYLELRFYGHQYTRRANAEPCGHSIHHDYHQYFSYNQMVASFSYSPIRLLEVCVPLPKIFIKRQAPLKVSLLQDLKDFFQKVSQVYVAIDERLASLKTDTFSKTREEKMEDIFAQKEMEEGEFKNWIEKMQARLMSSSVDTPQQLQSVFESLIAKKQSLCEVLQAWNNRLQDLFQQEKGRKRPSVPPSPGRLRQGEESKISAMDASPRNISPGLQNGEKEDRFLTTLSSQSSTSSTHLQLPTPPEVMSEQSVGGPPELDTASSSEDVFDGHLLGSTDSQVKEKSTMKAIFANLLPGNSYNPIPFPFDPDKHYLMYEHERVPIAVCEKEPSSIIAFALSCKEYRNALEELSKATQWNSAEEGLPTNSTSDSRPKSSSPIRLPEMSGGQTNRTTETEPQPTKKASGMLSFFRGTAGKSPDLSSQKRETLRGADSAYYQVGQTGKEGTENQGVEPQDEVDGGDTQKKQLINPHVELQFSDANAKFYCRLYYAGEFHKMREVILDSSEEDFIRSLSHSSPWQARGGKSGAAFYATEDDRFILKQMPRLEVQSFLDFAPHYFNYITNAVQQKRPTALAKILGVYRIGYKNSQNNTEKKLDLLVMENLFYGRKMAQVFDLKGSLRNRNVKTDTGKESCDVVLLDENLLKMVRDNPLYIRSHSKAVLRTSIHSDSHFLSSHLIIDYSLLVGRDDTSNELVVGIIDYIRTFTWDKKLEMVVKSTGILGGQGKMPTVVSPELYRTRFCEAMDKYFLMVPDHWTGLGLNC
endpoint.label: IC50
Could you write the number and then its unit?

Consider the molecule CCOC(=O)c1[nH]c2ccc(OC)cc2c1/C=C/C(=O)c1ccncc1 and give its measured IC50.
446 nM
